Target: Programmed Death 1 (PD-1) (UniProt Q15116 25-288, limits assumed)
Sequence (Q15116 25-288 limits assumed): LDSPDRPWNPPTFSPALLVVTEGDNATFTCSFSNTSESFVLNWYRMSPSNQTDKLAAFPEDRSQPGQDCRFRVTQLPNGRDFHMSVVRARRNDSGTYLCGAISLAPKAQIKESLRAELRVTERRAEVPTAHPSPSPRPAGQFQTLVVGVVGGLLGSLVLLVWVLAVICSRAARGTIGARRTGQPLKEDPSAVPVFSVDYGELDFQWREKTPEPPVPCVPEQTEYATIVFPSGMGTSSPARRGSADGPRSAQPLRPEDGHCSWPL
Assay: rank of the clone in the competition binding assay with labeled murine mAb BAP049, 1st experiment; higher number = worse
propertyLabel: Competition Binding, 1st exp. (rank)
Please give only the number in your answer, with no unit.

Asked: May I ask what Competition Binding, 1st exp. (rank) has been recorded for BAP049-hum04 (antibody, human IgG4 S228P, kappa, V domains shown, also called Clone No. 4) VH: EVQLVQSGAEVKKPGESLRISCKGSGYTFTTYWMHWIRQSPSRGLEWLGNIYPGTGGSNFDEKFKNRFTISRDNSKNTLYLQMNSLRAEDTAVYYCTRWTTGTGAYWGQGTTVTVSS VL: EIVLTQSPATLSLSPGERATLSCKSSQSLLDSGNQKNFLTWYQQKPGKAPKLLIYWASTRESGVPSRFSGSGSGTDFTFTISSLQPEDIATYYCQNDYSYPYTFGQGTKVEIKR ?
Given back: 15

Asked: Find the recorded Competition Binding, 1st exp. (rank) belonging to BAP049-hum16 (antibody, human IgG4 S228P, kappa, V domains shown, also called Clone No. 16) VH: EVQLVQSGAEVKKPGESLRISCKGSGYTFTTYWMHWVRQAPGQGLEWMGNIYPGTGGSNFDEKFKNRFTISRDNSKNTLYLQMNSLRAEDTAVYYCTRWTTGTGAYWGQGTTVTVSS VL: EIVLTQSPDFQSVTPKEKVTITCKSSQSLLDSGNQKNFLTWYQQKPGQAPRLLIYWASTRESGVPSRFSGSGSGTDFTFTISSLEAEDAATYYCQNDYSYPYTFGQGTKVEIKR and report it.
Given back: 16

Asked: Competition Binding, 1st exp. (rank) lookup needed for BAP049-hum03 (antibody, human IgG4 S228P, kappa, V domains shown, also called Clone No. 3) VH: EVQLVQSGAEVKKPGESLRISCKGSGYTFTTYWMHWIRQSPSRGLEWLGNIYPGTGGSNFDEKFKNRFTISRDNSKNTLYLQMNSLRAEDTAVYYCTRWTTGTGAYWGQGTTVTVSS VL: DIQMTQSPSSLSASVGDRVTITCKSSQSLLDSGNQKNFLTWYQQKPGQAPRLLIYWASTRESGIPPRFSGSGYGTDFTLTINNIESEDAAYYFCQNDYSYPYTFGQGTKVEIKR , thanks.
Given back: 8
